Origin of values: patent US20130243795A1

Biological target: Human CD27, full length on the cell surface (human, UniProt P26842 21-260)
Sequence (P26842 21-260 H233R): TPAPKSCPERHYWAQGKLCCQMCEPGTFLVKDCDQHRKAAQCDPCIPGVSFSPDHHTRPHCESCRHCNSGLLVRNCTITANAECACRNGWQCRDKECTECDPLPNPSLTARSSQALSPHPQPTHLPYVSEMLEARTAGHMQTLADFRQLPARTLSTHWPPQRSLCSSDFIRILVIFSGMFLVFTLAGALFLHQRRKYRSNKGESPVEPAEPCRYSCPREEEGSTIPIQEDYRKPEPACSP
Assay: cell-based or functional assay
Known NF-kB Assay IC50 of a selection of binders
Experimental Readout: NF-kB Assay IC50 (pM)

- M41 (antibody, human IgG1, V domains shown, chimeric; also called C2191 parent; C2191 parent chimera) VH: EVKLVESGGGLVKPGGSLKLSCAASGFTFSSYTMSWVRQTPEKRLEWVAYISSGGGNTYYPDSVKGRFTISRDNARNTLYLQMSSLRSEDTAMYYCSRHRGNPFDYWGQGTTLTVSS VL: DIVLTQSPASLAVSLGQRATISCRASKSVSTSGYSFMHWYQQKPGQPPKLLIYLASNLESGVPARFSGSGSGTDFTLNIHPVEEEDAATYYCQHSRELPWTFGGGTKLEIK: 2300
- M695 (antibody, V domains shown, also called single-gene DNA ID 695) VH: QVQLVESGGGLVKPGGSLRLSCAASGFTFSSYSMSWIRQAPGKGLEWVSYIDAGGGFTIYPDSVKGRFTISRDNAKNSLYLQMNSLRAEDTAVYYCARHRGNPFDYWGQGTLVTVSS VL: DIQMTQSPSSLSASVGDRVTITCRASKSVSEGRWSFMHWYQQKPGKAPKLLIYVASRLESGVPSRFSGSGSGTDFTFTISSLQPEDIATYYCQHSRELPWTFGQGTKVEIK: 250
- M694 (antibody, V domains shown, also called single-gene DNA ID 694) VH: QVQLVESGGGLVKPGGSLRLSCAASGFTFSSYGMSWIRQAPGKGLEWVSYIDEGGGQTIYPDSVKGRFTISRDNAKNSLYLQMNSLRAEDTAVYYCARHRGNPFDYWGQGTLVTVSS VL: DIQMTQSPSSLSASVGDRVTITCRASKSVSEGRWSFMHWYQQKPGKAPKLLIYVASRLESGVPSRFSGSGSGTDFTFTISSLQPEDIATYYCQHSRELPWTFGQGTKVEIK: 420
- M707 (antibody, V domains shown, also called single-gene DNA ID 707) VH: EVQLLESGGGLVQPGGSLRLSCAASGFTFSSYTMSWVRQAPGKGLEWVSAIDHGGGQTLYPDSVKGRFTISRDNSKNTLYLQMNSLRAEDTAVYYCARHRGNPFDYWGQGTLVTVSS VL: DIQMTQSPSSLSASVGDRVTITCRASKSVSHVRWSFMHWYQQKPGKAPKLLIYLASNLESGVPSRFSGSGSGTDFTLTISSLQPEDFATYYCQHSRELPWTFGQGTKVEIK: 260
- M696 (antibody, V domains shown, also called single-gene DNA ID 696) VH: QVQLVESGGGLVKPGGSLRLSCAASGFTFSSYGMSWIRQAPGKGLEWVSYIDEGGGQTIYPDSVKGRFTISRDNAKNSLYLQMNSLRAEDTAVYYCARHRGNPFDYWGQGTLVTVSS VL: DIQMTQSPSSLSASVGDRVTITCRASKSVSHVRWSFMHWYQQKPGKAPKLLIYLASKLESGVPSRFSGSGSGTDFTFTISSLQPEDIATYYCQHSRELPWTFGQGTKVEIK: 330
- M708 (antibody, V domains shown, also called single-gene DNA ID 708) VH: EVQLLESGGGLVQPGGSLRLSCAASGFTFSSYTMSWVRQAPGKGLEWVSVIDHGGGSTHYPDSVKGRFTISRDNSKNTLYLQMNSLRAEDTAVYYCARHRGNPFDYWGQGTLVTVSS VL: DIQMTQSPSSLSASVGDRVTITCRASKSVSTSGYSFMHWYQQKPGKAPKLLIYVGSRLDYGVPSRFSGSGSGTDFTLTISSLQPEDFATYYCQHSRELPWTFGQGTKVEIK: 260
